subject_of_test: T1, 4Ig-B7H3 fused to mouse Fc (B7H3-mFc) (human, UniProt Q5ZPR3 29-466, limits assumed, biotinylated on primary amines (NHS-biotin) in the experiment of paragraph 316)
T1 construct: Expressed in DG44 CHO cells; also called 4Ig-B7H3-Fc; 4Ig-B7H3-mFc; not shown: mouse Fc
T1 sequence (looked up): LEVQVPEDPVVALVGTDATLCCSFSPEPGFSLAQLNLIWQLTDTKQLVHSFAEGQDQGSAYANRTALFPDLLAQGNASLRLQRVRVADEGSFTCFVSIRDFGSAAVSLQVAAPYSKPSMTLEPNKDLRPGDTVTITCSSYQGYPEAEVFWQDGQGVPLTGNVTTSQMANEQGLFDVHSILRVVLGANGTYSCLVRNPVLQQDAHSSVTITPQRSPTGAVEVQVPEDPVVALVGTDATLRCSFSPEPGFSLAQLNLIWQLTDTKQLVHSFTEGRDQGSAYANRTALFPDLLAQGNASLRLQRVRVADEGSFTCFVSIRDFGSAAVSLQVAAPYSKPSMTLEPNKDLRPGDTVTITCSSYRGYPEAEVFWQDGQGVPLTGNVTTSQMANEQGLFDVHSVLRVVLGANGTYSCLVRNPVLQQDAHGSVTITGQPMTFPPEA
procedure_text: SPR, IgG on 4Ig-B7H3-Fc

binder: hu8H9 H3L3 IgG1 (antibody, V domains shown) VH: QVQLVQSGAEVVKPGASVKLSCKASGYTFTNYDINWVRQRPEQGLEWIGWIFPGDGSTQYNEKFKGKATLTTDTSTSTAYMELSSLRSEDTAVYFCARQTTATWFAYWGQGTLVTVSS VL: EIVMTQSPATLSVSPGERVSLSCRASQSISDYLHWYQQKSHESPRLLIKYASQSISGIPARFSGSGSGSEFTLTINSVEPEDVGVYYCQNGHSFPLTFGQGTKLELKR
kon / M⁻¹ s⁻¹: 6.83e+06
//
binder: mouse/human chimeric 8H9 (ch8H9) IgG1 (antibody, V domains shown) VH: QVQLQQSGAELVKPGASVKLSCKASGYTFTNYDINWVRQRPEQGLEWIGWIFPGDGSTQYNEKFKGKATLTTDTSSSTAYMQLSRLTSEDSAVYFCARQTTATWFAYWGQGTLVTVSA VL: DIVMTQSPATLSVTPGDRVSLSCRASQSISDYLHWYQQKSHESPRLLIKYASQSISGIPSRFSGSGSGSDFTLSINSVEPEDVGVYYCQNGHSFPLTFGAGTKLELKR
kon / M⁻¹ s⁻¹: 44800
//
binder: hu8H9 3.1 IgG1 (antibody, V domains shown, also called clone 3.1) VH: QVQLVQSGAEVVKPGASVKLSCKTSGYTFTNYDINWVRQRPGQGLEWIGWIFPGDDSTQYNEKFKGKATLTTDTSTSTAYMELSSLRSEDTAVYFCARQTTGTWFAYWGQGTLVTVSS VL: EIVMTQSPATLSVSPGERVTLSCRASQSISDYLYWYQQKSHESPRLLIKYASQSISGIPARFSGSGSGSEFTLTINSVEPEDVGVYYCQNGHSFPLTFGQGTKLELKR
kon / M⁻¹ s⁻¹: 55600
